Would you kindly list Tm for each of these sequences?
Experiment: melting temperature; fluorescence melt of hairpins on a sequencing array, two-state fit, raised by 9.35 °C to match UV melts
Conditions: sodium 0.088 M
Give the quantity in °C, number only.

Entry GCGGATTGCCGC ((((....)))) , Tm reported as 53.7

Recorded result, GACAAACGAAAGTTGTC (((.(((....)))))) , Tm: 48.2

Entry GTGGGGCGAAAGCCCAC (((.(((....)))))) ; Tm = 62.6

Summary for this sequence, TTTCCGAAAGGAAA (((((....))))) : Tm is 49.3

Given item GTGCCAGGAAACTAGCAC ((((.((....)).)))) , the value recorded as its Tm is 43.2

The sequence listed as GACGGGACGAAAGTCGTC (((..(((....)))))) shows Tm equal to 45.8

Reported Tm of GGGGTTGCGAAAGCACCC (((..(((....)))))) : 59.5

Consider GGGTTCGGAAACGGATCC ((.(.((....)).).)) . Its measured Tm is 40.2

response.value for GCATCCGAAAGGACGTGC ((((((....)))..))) (field: Tm) = 38.3

Documented Tm of CGGAAGAAATTCCG (((((....))))) : 46.4

GET /value?item= GCCCACGGAAACGCGGAC (.((.((....)).)).) &field=Tm returns 32.8

Memo: GGTGATGGAAACATCGTC (..((((....))))..) , reported Tm: 32.9

Noted for GCCTGGCGAAAGCCGGC (((.(((....)))))) : its Tm reads 68.1

Sample GATCAGGAGACTGATC ((((((....)))))) ; Tm observed: 51.3

Given item GGCAATCGAAAGATGGCC (((.(((....))).))) , the value recorded as its Tm is 57.8

Lookup result for GTCGCGGGAAACTGCGAC (((((.(....).))))) ; measured Tm: 65.3

# sequence TACGGGAAACCGTA (((((....))))) ; its Tm = 48.5

Reported Tm ( GGGACCGAAAGGTGCCC ((((((....))).))) ) = 61

Recorded Tm (sequence GCGGGCGAAAGCCCTCGC ((((((....)))..))) ): 50

Briefly, Tm measured for GCAGCGCCGAAAGGCTGC (((..(((....)))))) : 53.9

The value of Tm measured for the sequence GATCAGAGGCTGATC ((((((...)))))) turned out to be 48.7

// Tm lookup, sequence = GCCTCCGAAAGGACGGGC ((((((....)))..))) , result: 48.6

Just so you know, measured Tm for GCCTGGGGAAACCCAAGC ((.((((....)))).)) came out at 42.7

The recorded Tm for GATCCAACTTTGGATC ((((((....)))))) is 51

Recorded result, GCCAAGCGAAAGCTTCGC ((.((((....)))).)) , Tm: 50.4

Recorded Tm (sequence GAACACGAAAGTGAGTTC ((((((....)))..))) ): 35.7

Entry GATGTGGAAACACATC ((((((....)))))) , Tm reported as 57.1

Reported Tm of GGTGGAGGAAACTCCATC (.(((((....))))).) : 49.4

The measured Tm associated with GTACGCGAAAGCGATTAC ((((((....)))..))) reads 29.7

# Tm (sequence: GGAGTCGAAAGACACTCC ((((((....)))..))) ) is 37.5

Reported Tm for GATCTAATATAGATC ((((((...)))))) was 38.8

Value of measured Tm for the entry GAGGAGCGAAAGCTGCTC (((.(((....))).))) : 63.7

// Tm lookup, sequence = GAATAGCGAAAGCTGTTC (((.(((....))).))) , result: 51.5

Input GATCTCGGCGAGATC ((((((...)))))) . Output Tm: 59.6

The recorded Tm for GGTAAAGGAAACTTTATC (.(((((....))))).) is 30.5

Memo: GATCCTGGAGAGGATC ((((((....)))))) , reported Tm: 54

Please fill in: Tm reported for GCTCGGGCGAAAGCCAGC (((..(((....)))))) = 52

For record GGTCCTCGAAAGAGTACC (((.(((....))).))) the listed Tm is 43.4

Looking up GTATATGGAAACATATGC (.(((((....))))).) , I see its Tm listed as 36.5

Summary for this sequence, GCGTTGCGAAAGCCTCGC (((..((....))..))) : Tm is 58.1

GCGGACGAAAGTCTCCGC ((((((....)))..))) yielded Tm of 51.3

Item: GGGCACGAAAGTGTCCC ((((((....))).))) | Tm: 65.1

// GGTAGAGCGAAAGCTACC (((..(((....)))))) : Tm value = 45.5

Value of measured Tm for the entry GAAATCGGAAACGATCTC ((.((((....)))).)) : 29.3

The reported Tm of the sequence AAACAGAAATGTTT (((((....))))) was 25.3

GTATCAGGAAACTGATGC (.(((((....))))).) yielded Tm of 45

get_value(item= GCGTGGCGAAAGCCTGGC ((..(((....)))..)) , readout=Tm) returns 52.4

Value of measured Tm for the entry GATCATTGCCATGATC ((((((....)))))) : 46.4

response.value for GATCTACGGTTAGATC ((((((....)))))) (field: Tm) = 37.8

Lab note: measured Tm of GCTATGCGAAAGCCAAGC (((..((....))..))) was 36.5
